- assay-comment: Approximate solubility of starting material at RT
- Type: physicochemical
- test-conditions: organic solvent or mixture; DCM/MeOH (1:1); RT (~27 °C)
readout-type: solubility

The compound identified as O=c1[nH]cnc2c(CN3C[C@H](CO)[C@@H](O)C3)c[nH]c12 [Glutarate Type A] registered its solubility at < 1900 µg/mL

* * *

- assay-comment: Physicochemical stability (2-week, open conditions)
- test-conditions: 10-day; 60 °C; read-out: Purity
- Source text: SHIMADZU LC-20AD was employed to detect the chemical purity HPLC method for purity test
readout-type: remaining at 240 h
Write down the value, and be sure its unit follows.

The compound listed as O=c1[nH]cnc2c(CN3C[C@H](CO)[C@@H](O)C3)c[nH]c12 [Glutarate Type A] shows remaining at 240 h equal to 97.6%
